FYI, the data here is from the RNAGym collection of RNA variant scans (doi:10.1093/molbev/msab373).

B1: Azoarcus group I ribozyme (parent)
chain: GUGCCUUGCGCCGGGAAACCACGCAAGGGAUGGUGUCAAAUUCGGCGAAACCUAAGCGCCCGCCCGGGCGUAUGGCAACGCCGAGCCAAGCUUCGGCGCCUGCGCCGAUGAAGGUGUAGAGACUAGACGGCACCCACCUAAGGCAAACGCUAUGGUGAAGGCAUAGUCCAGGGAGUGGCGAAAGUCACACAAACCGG

variants of: B1; test: reverse-splicing fitness (ratio to wild type); higher = more active; in vitro selection; Mg2+ level not given
measurement.label: reverse-splicing fitness

Name the recorded reverse-splicing fitness for C82G A111U A120C C150A C169U U176G .
0.00816

Name the recorded reverse-splicing fitness for C82G A111U C150A C169G .
0.00899

Name the recorded reverse-splicing fitness for C82A A111C A120G A145G C150G U176A .
0.00663

Name the recorded reverse-splicing fitness for C82U A120C C150G C169A U176A .
0.0104

Name the recorded reverse-splicing fitness for C82U A111U A145C C150G C169G U176G .
0.00581

Name the recorded reverse-splicing fitness for C82U A111C A120G A145G C150G U176G .
0.00607

Name the recorded reverse-splicing fitness for C82U A111G A120G A145G C150U C169U .
0.0114

Name the recorded reverse-splicing fitness for C82A A111G A120C A145U C150G C169G .
0.0075

Name the recorded reverse-splicing fitness for C82U A111G A120C A145C C169A U176A .
0.00738

Name the recorded reverse-splicing fitness for C82G A111C A120C A145C C150A U176C .
0.0115

Name the recorded reverse-splicing fitness for C82G A111G A120U A145U C150A C169U U176C .
0.0029

Name the recorded reverse-splicing fitness for C82A A111G A120C C150G C169A U176C .
0.0139

Name the recorded reverse-splicing fitness for A111U A120G A145C C150A U176G .
0.00407

Name the recorded reverse-splicing fitness for C82A A111U A120C A145U C150U C169U .
0.0116

Name the recorded reverse-splicing fitness for C82A A111G C150U C169G U176A .
0.0188

Name the recorded reverse-splicing fitness for C82U A111C A120C A145C C150G C169G .
0.00681

Name the recorded reverse-splicing fitness for C82U A111U A120G A145G C150G U176G .
0.00543

Name the recorded reverse-splicing fitness for C82G A111C A120C C150U C169A U176C .
0.0129

Name the recorded reverse-splicing fitness for C82U A111G A145U C150A U176G .
0.0097

Name the recorded reverse-splicing fitness for C82A A111C A145U C150U .
0.135

Name the recorded reverse-splicing fitness for C82G A111G A145U C150U U176A .
0.154

Name the recorded reverse-splicing fitness for C82U A120U A145U C150A C169U U176A .
0.0025
